# EXPERIMENT_SUMMARY: in vivo
# STUDY_CONDITIONS: zebrafish
# Description: Acute toxicity in juvenile zebrafish assessed as fatality rate at 150 uM after 24 hrs
METRIC_NAME: mortality at 24 h, 150 µM (%)
I only need the number, in %, no unit after it.

As a guide, the following entries are already answered.
[
  {
    "MOLECULE": "CCO/N=C/c1ccc(OCCCCCN2CCN(c3ccnc(N)c3)C2=O)cc1",
    "mortality at 24 h, 150 µM [%]": 100
  },
  {
    "MOLECULE": "CC(CCOc1ccc(-c2noc(C(F)(F)F)n2)cc1)CCN1CCN(c2ccnc(N)c2)C1=O (centres undefined)",
    "mortality at 24 h, 150 µM [%]": 80
  },
  {
    "MOLECULE": "CC(CCOc1ccc(-c2noc(C(C)(C)C)n2)cc1)CCN1CCN(c2ccnc(N)c2)C1=O (centres undefined)",
    "mortality at 24 h, 150 µM [%]": 100
  },
  {
    "MOLECULE": "CCCc1nc(-c2ccc(OCCC(C)CCN3CCN(c4ccnc(N)c4)C3=O)cc2)no1 (centres undefined)",
    "mortality at 24 h, 150 µM [%]": 100
  },
  {
    "MOLECULE": "CCc1nc(-c2ccc(OCCC(C)CCN3CCN(c4ccnc(N)c4)C3=O)cc2)no1 (centres undefined)",
    "mortality at 24 h, 150 µM [%]": 80
  }
]

query: Please give the measured mortality at 24 h, 150 µM for this molecule: CCO/N=C/c1ccc(OCCC(C)CCN2CCN(c3ccnc(N)c3)C2=O)cc1 (centres undefined)
result: 100

query: Field request: mortality at 24 h, 150 µM | item: Cc1nc(-c2ccc(OCCC(C)CCN3CCN(c4ccnc(N)c4)C3=O)cc2)no1 (centres undefined)
result: 10

query: Consider the molecule CCO/N=C/c1ccc(OCCC(C)CCN2CCN(c3ccccc3)C2=O)cc1 (centres undefined) and give its measured mortality at 24 h, 150 µM.
result: 100

query: I'd like to know its mortality at 24 h, 150 µM. The molecule in question is CCO/N=C/c1ccc(OCCC(C)CCN2CCN(c3ccnc(OC)c3)C2=O)cc1 (centres undefined)
result: 100

====

# EXPERIMENT_SUMMARY: Acute toxicity in juvenile zebrafish assessed as fatality rate at 50 uM after 48 hrs
# STUDY_CONDITIONS: in vivo
mortality at 48 h, 50 µM for assorted compounds
Write the value in % as a bare number.

Some solved cases for reference:
[
  {
    "COMPOUND": "CC(CCOc1ccc(-c2noc(C(C)(C)C)n2)cc1)CCN1CCN(c2ccnc(N)c2)C1=O (stereo not given)",
    "DATA_VALUE": 0
  },
  {
    "COMPOUND": "CCc1nc(-c2ccc(OCCC(C)CCN3CCN(c4ccnc(N)c4)C3=O)cc2)no1 (stereo not given)",
    "DATA_VALUE": 100
  }
]

query: Reported mortality at 48 h, 50 µM, compound CCO/N=C/c1ccc(OCCC(C)CCN2CCN(c3ccccc3)C2=O)cc1 (stereo not given) : ____
result: 100

query: Tell me the measured mortality at 48 h, 50 µM of CCO/N=C/c1ccc(OCCC(C)CCN2CCN(c3ccnc(OC)c3)C2=O)cc1 (stereo not given) , please.
result: 100

query: Item under review: Cc1nc(-c2ccc(OCCC(C)CCN3CCN(c4ccnc(N)c4)C3=O)cc2)no1 (stereo not given) . Reported mortality at 48 h, 50 µM?
result: 0

====

# EXPERIMENT_SUMMARY: AUC (0 to t) in Sprague-Dawley rat at 5 mg/kg, po administered as single dose measured upto 24 hrs by LC-MS/MS analysis
# Format: ADME, organism-based
# STUDY_CONDITIONS: in vivo
METRIC_NAME: AUCt (µg·h/L)
Please reply with the bare figure in µg·h/L and do not write the unit itself.

query: Name the reported AUCt value associated with the molecule CCO/N=C/c1ccc(OCCC(C)CCN2CCN(c3ccnc(N)c3)C2=O)cc1 (stereo unspecified)
result: 222

====

# EXPERIMENT_SUMMARY: Subacute toxicity in PND7 Sprague-Dawley rat assessed as animal survival at 30 to 50 mg/kg/day, po administered via gavage for 14 days and measured for 28 days
# Type: organism-based
# STUDY_CONDITIONS: in vivo
METRIC_NAME: survival at 672 h (%)
Quick note: give the figure in %, leave out the unit.

query: Report survival at 672 h for CCO/N=C/c1ccc(OCCC(C)CCN2CCN(c3ccnc(N)c3)C2=O)cc1 (stereo unspecified) please.
result: 100

====

Each record here notes measured mortality at 48 h, 20 µM.
# EXPERIMENT_SUMMARY: Acute toxicity in juvenile zebrafish assessed as fatality rate at 20 uM after 48 hrs
# STUDY_CONDITIONS: in vivo
Provide only the numeric value, understood in %.

See these solved cases before continuing.
[
  {
    "COMPOUND": "CCO/N=C/c1ccc(OCCC(C)CCN2CCN(c3ccccc3)C2=O)cc1 (centres undefined)",
    "READOUT_UNITS": "%",
    "mortality at 48 h, 20 µM": 100
  },
  {
    "COMPOUND": "CCO/N=C/c1ccc(OCCC(C)CCN2CCN(c3ccnc(OC)c3)C2=O)cc1 (centres undefined)",
    "READOUT_UNITS": "%",
    "mortality at 48 h, 20 µM": 100
  },
  {
    "COMPOUND": "CCO/N=C/c1ccc(OCCCCCN2CCN(c3ccnc(N)c3)C2=O)cc1",
    "READOUT_UNITS": "%",
    "mortality at 48 h, 20 µM": 20
  },
  {
    "COMPOUND": "Cc1nc(-c2ccc(OCCC(C)CCN3CCN(c4ccnc(N)c4)C3=O)cc2)no1 (centres undefined)",
    "READOUT_UNITS": "%",
    "mortality at 48 h, 20 µM": 0
  },
  {
    "COMPOUND": "CCO/N=C/c1ccc(OCCC(C)CCN2CCN(c3ccnc(N)c3)C2=O)cc1 (centres undefined)",
    "READOUT_UNITS": "%",
    "mortality at 48 h, 20 µM": 100
  }
]

query: Field request: mortality at 48 h, 20 µM | item: CC(CCOc1ccc(-c2noc(C(C)(C)C)n2)cc1)CCN1CCN(c2ccnc(N)c2)C1=O (centres undefined)
result: 0

query: Name the recorded mortality at 48 h, 20 µM for CC(CCOc1ccc(-c2noc(C(F)(F)F)n2)cc1)CCN1CCN(c2ccnc(N)c2)C1=O (centres undefined) .
result: 0

query: So what's the measured mortality at 48 h, 20 µM for this one? CCCc1nc(-c2ccc(OCCC(C)CCN3CCN(c4ccnc(N)c4)C3=O)cc2)no1 (centres undefined)
result: 60

query: Given CCc1nc(-c2ccc(OCCC(C)CCN3CCN(c4ccnc(N)c4)C3=O)cc2)no1 (centres undefined) , state its recorded mortality at 48 h, 20 µM.
result: 60

====

# EXPERIMENT_SUMMARY: Cytotoxicity against human RD cells assessed as reduction in cell viability incubated for 24 hrs by MTT assay
# STUDY_CONDITIONS: rd
METRIC_NAME: CC50 at 24 h

query: Request the reported CC50 at 24 h associated with CCO/N=C/c1ccc(OCCC(C)CCN2CCN(c3ccnc(N)c3)C2=O)cc1 (stereo unspecified)
result: 29.4 µM

Reference for the values: ChEMBL document CHEMBL4376886
